Data origin, for the record: PubChem BioAssay AID2060509

Measured viability, T/C, listed per entry.
# Test system: 485176-168-R4-J1-PDC spheroids with HUVEC/MSC, viability;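 also: spheroids exposed to compounds for seven days before readout; percent viability relative to DMSO vehicle control wells as 100%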
# assay: Anticancer human tumor 485176-168-R4-J1-PDC patient-derived pancreatic adenocarcinoma cell line growth inhibition [GQUAD]
# condition.parameters: second compound 0.316 µM; first compound 0.000999 µM; hits give low values

# compound, u, viability, T/C
data = [
    ("Cc1[nH]c2ccccc2c1CCNCc1ccc(/C=C/C(=O)NO)cc1 + Cc1[nH]c2ccc(F)cc2c1-c1nc2c3cccnc3c3ncccc3c2[nH]1", "%", 103),
    ("Cn1ncnc1[C@H]1c2n[nH]c(=O)c3cc(F)cc(c23)N[C@@H]1c1ccc(F)cc1 + CN(C)c1ccc(Nc2c3ccc(NC(=O)CCN4CCCC4)cc3nc3cc(NC(=O)CCN4CCCC4)ccc23)cc1", "%", 101),
    ("CC[C@@]1(O)C(=O)OCc2c1cc1n(c2=O)Cc2cc3c(CN(C)C)c(O)ccc3nc2-1 + Cc1[nH]c2ccc(F)cc2c1-c1nc2c3cccnc3c3ncccc3c2[nH]1", "%", 106),
    ("CCc1c2c(nc3ccc(O)cc13)-c1cc3c(c(=O)n1C2)COC(=O)[C@]3(O)CC + Cc1[nH]c2ccc(F)cc2c1-c1nc2c3cccnc3c3ncccc3c2[nH]1", "%", 83.4),
    ("CC[C@@]1(O)C(=O)OCc2c1cc1n(c2=O)Cc2cc3c(CN(C)C)c(O)ccc3nc2-1 + CN(C)c1ccc(Nc2c3ccc(NC(=O)CCN4CCCC4)cc3nc3cc(NC(=O)CCN4CCCC4)ccc23)cc1", "%", 97.3),
    ("CC[C@@]1(O)C(=O)OCc2c1cc1n(c2=O)Cc2cc3c(CN(C)C)c(O)ccc3nc2-1 + Cc1cnc(CNC(=O)c2c(=O)c3ccc(N4CCCN(C)CC4)nc3n3c2sc2ccccc23)cn1", "%", 69.3),
]
